tested on: HEK293; test: Inhibition of mouse GAT4-mediated [3H]GABA uptake stably transfected in HEK293 cells assessed as residual uptake at 100 uM relative to control; assay type: cell-based
The entries below are paired with their reported Activity.
Enter your answer as a number in %; do not include the unit.

Below: 2 molecules and their reported Activity.
Molecule	Metric name	Unit	Numeric readout
Cc1ccsc1C(=CCCN1CCC[C@@H](C(=O)O)C1)c1sccc1C	Activity	%	73
C[C@H](O)C[C@H](C(=O)NCc1ccccc1Cl)N1CCC(=C(c2ccccc2)c2ccccc2)CC1 (relative stereo)	Activity	%	71

I have this molecule here, C[C@@H](O)C[C@H](C(=O)NCc1ccccc1Cl)N1CCC(=C(c2ccccc2)c2ccccc2)CC1 (relative stereo) , and I need its recorded Activity.
99

Need Activity of C[C@H](O)C[C@H](C(=O)NCc1ccc(F)cc1)N1CCC(=C(c2ccccc2)c2ccccc2)CC1 (relative stereo) , thanks.
65
